Target: Endothelial lipase (EL) (Homo sapiens (Human))
Sequence (Q9Y5X9 21-500): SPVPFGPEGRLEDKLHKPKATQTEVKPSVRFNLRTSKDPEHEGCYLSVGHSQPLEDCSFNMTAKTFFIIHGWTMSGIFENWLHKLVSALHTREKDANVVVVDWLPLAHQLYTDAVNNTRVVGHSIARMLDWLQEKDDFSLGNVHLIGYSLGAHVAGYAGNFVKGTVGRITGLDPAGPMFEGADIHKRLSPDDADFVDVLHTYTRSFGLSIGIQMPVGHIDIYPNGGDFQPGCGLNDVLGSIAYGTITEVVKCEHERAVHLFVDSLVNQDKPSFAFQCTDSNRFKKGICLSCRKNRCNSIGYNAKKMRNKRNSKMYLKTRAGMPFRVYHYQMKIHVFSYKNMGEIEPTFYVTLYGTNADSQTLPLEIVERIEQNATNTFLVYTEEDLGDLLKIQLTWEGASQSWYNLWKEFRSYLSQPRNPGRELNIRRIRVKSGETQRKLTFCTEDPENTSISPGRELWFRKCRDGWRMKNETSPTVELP
Assay: EL assay: endothelial lipase activity with fluorescent substrate A10070 in DMPG vesicles
Format: biochemical
Listed compounds paired with reported log10 of IC50
readoutType: log10 of IC50 (log10 of the value in nM)

| compound | readoutType | testResult |
| --- | --- | --- |
| CS(=O)(=O)C(C(=O)NCCS(N)(=O)=O)c1nc2ccc(-c3ccccc3F)cc2s1 (stereo not drawn) | log10 of IC50 | 0.48 |
| COC1CN(C(=O)c2ccc(-c3ccc4nc(C(C(=O)NCCS(N)(=O)=O)S(=O)(=O)Cc5ccc(C(F)(F)F)cc5)sc4c3)cc2)C1 (stereo not drawn) | log10 of IC50 | 0.75 |
| CS(=O)(=O)C(C(=O)NCCS(N)(=O)=O)c1nc2cc(-c3ccc(F)nc3)ccc2s1 (stereo not drawn) | log10 of IC50 | 0.40 |
| NC(=O)c1ccc(-c2ccc3nc(C(C(=O)NCCS(N)(=O)=O)S(=O)(=O)Cc4ccc(OC(F)(F)F)cc4)sc3c2)cc1 (stereo not drawn) | log10 of IC50 | -0.30 |
| COCCS(=O)(=O)C(C(=O)NCc1nnc(C)o1)c1nc2cc(F)c(-c3ccc(C(=O)N4CCCC4)c(F)c3)cc2s1 (stereo not drawn) | log10 of IC50 | 2.00 |
| NS(=O)(=O)CCNC(=O)C(c1nc2ccc(C(=O)N3CC(F)(F)C3)cc2s1)S(=O)(=O)CCC(F)(F)F (stereo not drawn) | log10 of IC50 | 1.41 |
| Cn1ccc(-c2ccc3nc(C(C(=O)NCCS(N)(=O)=O)S(=O)(=O)Cc4ccc(C(F)(F)F)cc4)sc3c2)cc1=O (stereo not drawn) | log10 of IC50 | 1.45 |
| CC(C)(O)CNC(=O)c1ccc(-c2ccc3nc(C(C(=O)NCCS(N)(=O)=O)S(C)(=O)=O)sc3c2)cc1 (stereo not drawn) | log10 of IC50 | 0.81 |
| CC(=O)Nc1ccc(-c2ccc3nc(C(C(=O)NCCS(N)(=O)=O)S(=O)(=O)Cc4ccc(C(F)(F)F)cc4)sc3c2)cc1 (stereo not drawn) | log10 of IC50 | 0.85 |
| CS(=O)(=O)C(C(=O)NCCS(N)(=O)=O)c1nc2ccc(-c3ccc(C(=O)N4CC(F)C4)cc3)cc2s1 (stereo not drawn) | log10 of IC50 | -0.15 |
| COCc1ccc(-c2ccc3nc(C(C(=O)NCCS(N)(=O)=O)S(=O)(=O)CC4CC4)sc3c2)cc1 (stereo not drawn) | log10 of IC50 | 0.59 |
| NS(=O)(=O)CCNC(=O)C(c1nc2ccc(-c3ccc(C(=O)N4CCOCC4)cc3)cc2s1)S(=O)(=O)Cc1ccc(F)cc1 (stereo not drawn) | log10 of IC50 | 0.46 |
| Cc1nnc(CNC(=O)C(c2nc3cc(C)c(-c4ccc(C(=O)N5CCOCC5)cc4)cc3s2)S(=O)(=O)Cc2ccccc2)o1 (stereo not drawn) | log10 of IC50 | 1.43 |
| CC1(O)CN(C(=O)c2ccc(-c3ccc4nc(C(C(=O)NCCS(N)(=O)=O)S(=O)(=O)Cc5ccc(OC(F)(F)F)cc5)sc4c3)cc2)C1 (stereo not drawn) | log10 of IC50 | 0.41 |
| CN(C)C(=O)c1ccc(-c2ccc3nc(C(C(=O)NCCS(N)(=O)=O)S(=O)(=O)Cc4ccc(OC(F)(F)F)cc4)sc3c2)cc1F (stereo not drawn) | log10 of IC50 | 1.47 |
| Cn1ccc(-c2ccc3nc(C(C(=O)NCCS(N)(=O)=O)S(=O)(=O)Cc4ccc(OC(F)(F)F)cc4)sc3c2)cc1=O (stereo not drawn) | log10 of IC50 | 1.20 |
| CC1(O)CN(C(=O)c2ccc(-c3ccc4nc(C(C(=O)NCCS(N)(=O)=O)S(=O)(=O)Cc5ccc(C(F)(F)F)cc5)sc4c3)cc2)C1 (stereo not drawn) | log10 of IC50 | 0.38 |
| CC1(O)CN(C(=O)c2ccc(-c3ccc4nc(C(C(=O)NCCS(N)(=O)=O)S(=O)(=O)Cc5cccc(C(F)(F)F)c5)sc4c3)cc2)C1 (stereo not drawn) | log10 of IC50 | 0.79 |
| COCCNC(=O)c1ccc(-c2ccc3nc(C(C(=O)NCCS(N)(=O)=O)S(=O)(=O)Cc4ccc(Cl)c(Cl)c4)sc3c2)cc1 (stereo not drawn) | log10 of IC50 | 1.31 |
